Data origin, for the record: patent US20230110378A1

# test_description: Pharmacokinetic evaluation of compounds in mice (tail vein injection)
# Type: in vivo, Male CD-1 (ICR) mice
# cond: CD-1 (ICR), mouse; male CD-1 mice, intravenous injection, dose 5 mg/kg, plasma
readout: clearance (mL/min/kg)
Express the result in mL/min/kg but write the number alone.

Ask: What clearance value was documented for this molecule, CC(C)(O/N=C(\C(=O)N[C@@H]1C(=O)N(S(=O)(=O)O)[C@@H]1CNC(=O)c1cc([C@@H]2CCN(C(=O)c3cc(=O)c(O)cn3O)C2)no1)c1csc(N)n1)C(=O)O ?
Reply: 19.6

----------
Quick record: MIC, Escherichia coli HDBEC 30008.

Use the examples below as a reference point.
compound	readout_value
C[n+]1cc(-c2ncc(C(=O)NC[C@@H]3[C@H](NC(=O)/C(=N\OC(C)(C)C(=O)O)c4csc(N)n4)C(=O)N3S(=O)(=O)O)s2)cn1CCCNC(=N)N	< 4 µg/mL
C[n+]1cc(-c2ncc(C(=O)NC[C@@H]3[C@H](NC(=O)/C(=N\OC(C)(C)C(=O)O)c4csc(N)n4)C(=O)N3S(=O)(=O)O)s2)cn1CCCNC(=O)c1cc(=O)c(O)cn1O	< 4 µg/mL
C[n+]1cc(-c2ncc(C(=O)NC[C@@H]3[C@H](NC(=O)/C(=N\OC(C)(C)C(=O)O)c4csc(N)n4)C(=O)N3S(=O)(=O)O)s2)cn1CC(N)CN (stereo partly shown)	< 4 µg/mL
CC(C)(O/N=C(\C(=O)N[C@@H]1C(=O)N(S(=O)(=O)O)[C@@H]1CNC(=O)c1cc([C@@H]2CCN(CCNC(=O)c3cc(=O)c(O)cn3O)C2)no1)c1csc(N)n1)C(=O)O	< 4 µg/mL

Ask: Reported MIC for Escherichia coli HDBEC 30008, given C[n+]1cc(-c2ncc(C(=O)NC[C@@H]3[C@H](NC(=O)/C(=N\OC(C)(C)C(=O)O)c4csc(N)n4)C(=O)N3S(=O)(=O)O)s2)cn1CCCNC(=O)c1ccc(O)c(O)c1Cl ?
Reply: < 4 µg/mL

Ask: What value of MIC on Escherichia coli HDBEC 30008 does CC(C)(O/N=C(\C(=O)N[C@@H]1C(=O)N(S(=O)(=O)O)[C@@H]1CNC(=O)c1cc(-c2cc[n+](CCN)cc2)no1)c1csc(N)n1)C(=O)O have?
Reply: 4 to 8 µg/mL

Ask: Item: C[n+]1cc(-c2ncc(C(=O)NC[C@@H]3[C@H](NC(=O)/C(=N\OC(C)(C)C(=O)O)c4nsc(N)n4)C(=O)N3S(=O)(=O)O)s2)cn1CCCN Test system: Escherichia coli HDBEC 30008 Read-out: MIC Value: ?
Reply: 8 to 16 µg/mL

Ask: What reported MIC corresponds to Nc1nc(/C(=N/OC2(C(=O)O)CC2)C(=O)N[C@@H]2C(=O)N(S(=O)(=O)O)[C@@H]2CNC(=O)c2cc([C@@H]3CCN(C(=O)c4cc(=O)c(O)cn4O)C3)no2)cs1 on Escherichia coli HDBEC 30008?
Reply: < 4 µg/mL

Ask: # returns recorded MIC (system: Escherichia coli HDBEC 30008) for C[C@H]1[C@H](NC(=O)/C(=N\OC(C)(C)C(=O)O)c2csc(N)n2)C(=O)N1S(=O)(=O)O [Aztreonam, reference compound]
Reply: 8 to 16 µg/mL

Ask: Entry C[N+]1(CCNC(=O)c2ccc(O)c(O)c2Cl)CC[C@@H](c2cc(C(=O)NC[C@@H]3[C@H](NC(=O)/C(=N\OC4(C(=O)O)CC4)c4csc(N)n4)C(=O)N3S(=O)(=O)O)on2)C1 (stereo partly shown) , system Escherichia coli HDBEC 30008: what MIC was measured?
Reply: < 4 µg/mL
